Test system: HepaRG
Experiment: LDH release cytotoxicity, % of total lysis control; higher = more cytotoxic
Particulars: 0.1 µM; 48 h
Reported LDH release cytotoxicity is given for each of the following molecules.
Express the result in % but write the number alone.

Here are 5 molecules together with their reported answers.
C=CC(=O)OCCCCCC(C)C [Isooctyl acrylate]    -1.54
CC(C)N1C(=O)N(c2ccccc2)CSC1=NC(C)(C)C    -1.93
CCCCCCOC(=O)c1ccccc1C(=O)OCCCCCC [Dihexyl phthalate]    -2.29
O=C(O)C(F)(F)C(F)(F)C(F)(F)C(F)(F)C(F)(F)C(F)(F)C(F)(F)F    -1.32
Clc1ccc(Cl)c(Cl)c1    -0.799

Read the next record carefully.
Give the measured LDH release cytotoxicity of O=c1c(-c2ccc(O)cc2)coc2cc(O)ccc12 [7,4'-Dihydroxyisoflavone] .
-1.95

----------
Test system: HepaRG
Experiment: LDH release cytotoxicity, % of total lysis control; higher = more cytotoxic
Particulars: 0.03162 µM; 48 h
Parameter LDH release cytotoxicity: see the listing below.
Report as a plain number; the unit % is understood.

Form field: reported LDH release cytotoxicity of CC1CC2C3CCC4=CC(=O)C=CC4(C)C3(F)C(O)CC2(C)C1(O)C(=O)COP(=O)(O)O (centres undefined) [Dexamethasone sodium phosphate]
-1.41

----------
System: HepaRG
Experiment: LDH release cytotoxicity, % of total lysis control; higher = more cytotoxic
Particulars: 0.03162 µM; 48 h
Catalogue of LDH release cytotoxicity readings, one per entry.

Answered examples (5):
Cc1ccccc1O    -1.5%
CN(C)C(=O)Nc1cccc(C(F)(F)F)c1    -0.415%
COc1nn(CSP(=S)(OC)OC)c(=O)s1    1.04%
[Cl][Hg][Cl] [Mercuric chloride]    -0.633%
O=C(O)COc1ccc(Cl)cc1Cl    -2.81%

Would you mind telling me what LDH release cytotoxicity value was observed for Cn1c(=O)c2c(ncn2C)n(C)c1=O ?
-1.5%

----------
Parameter LDH release cytotoxicity: see the listing below.
Tested on: HepaRG
Experiment: LDH release cytotoxicity, % of total lysis control; higher = more cytotoxic
Particulars: 10 µM; 48 h
Respond numerically; units are % and should not be typed.

OCCOc1ccccc1 [2-Phenoxyethanol]    -1.27
CC(O)CN(CCN(CC(C)O)CC(C)O)CC(C)O (centres undefined) [1,1',1'',1'''-(Ethanediylnitrilo)tetrakis(2-propanol)]    -1.35
ClC1(Cl)C2(Cl)C3(Cl)C4(Cl)C(Cl)(Cl)C5(Cl)C3(Cl)C1(Cl)C5(Cl)C24Cl (centres undefined) [Mirex]    -1.21
Nc1nc(N)nc(NC2CC2)n1 [Cyromazine]    -1.14
CC#CC1(O)CCC2C3CCC4=CC(=O)CCC4=C3C(c3ccc(N(C)C)cc3)CC21C (centres undefined) [Mifepristone]    31.5

State the recorded LDH release cytotoxicity for this entry: Cc1ccc(C)c(O)c1 [2,5-Dimethylphenol]
-0.854

Reported LDH release cytotoxicity for C#CCN1C(=O)COc2cc(F)c(N3C(=O)C4=C(CCCC4)C3=O)cc21 [Flumioxazin] : what is it?
-1.1

Consider the molecule shown here: O=C1CCCCCN1 [Caprolactam] What is its recorded LDH release cytotoxicity?
-0.823

Which LDH release cytotoxicity reading was recorded for the molecule CS(=O)(=O)c1cc(C(F)(F)F)ccc1C(=O)c1cnoc1C1CC1 [Isoxaflutole] ?
-0.455

----------
Tested on: HepaRG
Experiment: LDH release cytotoxicity, % of total lysis control; higher = more cytotoxic
Particulars: 100 µM; 48 h
Measurement Label: LDH release cytotoxicity (%)
Answer format: numeric, % implied, no suffix.

Here's what some known entries look like.
COc1cc(Cl)c(OC)cc1Cl    0.671
Oc1cc2ccccc2c2ccccc12    0.0725

Look up LDH release cytotoxicity: Oc1ccc2ccccc2c1N=Nc1ccccc1
-3.46

Would you kindly share the measured LDH release cytotoxicity for O=[N+]([O-])/N=C1\NCCN1Cc1ccc(Cl)nc1 ?
1.58

Need LDH release cytotoxicity of CC(C)COC(=O)CCCCC(=O)OCC(C)C [Diisobutyl adipate] , thanks.
46.4

Reported LDH release cytotoxicity for O=c1ccc(=O)[nH][nH]1 [Maleic hydrazide] : what is it?
2.69

# LDH release cytotoxicity lookup, item c1cc2ccc3cccc4ccc(c1)c2c34
-0.178

What does the record list as LDH release cytotoxicity for CCCCCCCCCC ?
0.361

So what does the record say about LDH release cytotoxicity for O=S1OCC2C(CO1)C1(Cl)C(Cl)=C(Cl)C2(Cl)C1(Cl)Cl (stereo not given) [Endosulfan] ?
14.5

// LDH release cytotoxicity lookup, key: CCCC1COC(Cn2cncn2)(c2ccc(Cl)cc2Cl)O1 (stereo not given)
26.8

----------
System: HepaRG
Experiment: LDH release cytotoxicity, % of total lysis control; higher = more cytotoxic
Particulars: 100 µM; 48 h
Measurement Label: LDH release cytotoxicity (%)
Quick note: give the figure in %, leave out the unit.

Check out these entries, answers already filled in.
C=CC1(C)OC(=O)N(c2cc(Cl)cc(Cl)c2)C1=O (stereo not given)    0.481
CN1CCCC1=O    7.04

Can you share its LDH release cytotoxicity? I mean this compound: CNC(=O)N(C)c1nnc(C(C)(C)C)s1
0.223

Would you mind telling me what LDH release cytotoxicity value was observed for O=C(N[C@H]1CN2CCC1CC2)c1cc2ccoc2cn1 [(R)-N-(Quinuclidin-3-yl)furo(2,3-C)pyridine-5-carboxamide] ?
1.77

Request the reported LDH release cytotoxicity associated with CCC1(c2ccccc2)C(=O)N=C(O)NC1=O (stereo not given) [Phenobarbital sodium]
1.83

----------
System: HepaRG
Experiment: LDH release cytotoxicity, % of total lysis control; higher = more cytotoxic
Particulars: 1 µM; 48 h
Counter-ions that a name gives are not always drawn.
LDH release cytotoxicity values, listed per item
Give a bare numeral; the unit % is implied.

See these solved cases before continuing.
COc1ccc(OC(F)(F)F)cc1CNC1CCCNC1c1ccccc1 (configuration not stated)    -1.02
Nc1nc(=O)c2nc(CNc3ccc(C(=O)NC(CCC(=O)O)C(=O)O)cc3)cnc2[nH]1 (configuration not stated)    -1.1
CCOP(=S)(OCC)Oc1cc(C)nc(C(C)C)n1    -1.24
Cc1ccc(N)cc1    -2.15
Cc1ccc(N=CN(C)C=Nc2ccc(C)cc2C)c(C)c1    -1.98

Form field: LDH release cytotoxicity recorded for O=S1(=O)CCCO1 with HepaRG (enter value)
-1.38

Field: LDH release cytotoxicity (HepaRG). Entry: CCOCCOC(C)=O [Ethylene glycol monoethyl ether acetate]
0.488

Which measured LDH release cytotoxicity belongs to Nc1cc2c3c(c1)C(c1ccccc1)=NC(NC(=O)c1cccnc1)C(=O)N3CC2 (configuration not stated) , tested on HepaRG?
-0.0936

# query: LDH release cytotoxicity | item COP(=S)(OC)SCN1C(=O)c2ccccc2C1=O | system: HepaRG
-1.6

Form entry - test system: HepaRG; read-out: LDH release cytotoxicity; compound: Nc1ccc(Cl)cc1N
-1.19

Item: O=C(O)C(F)(F)C(F)(F)C(F)(F)C(F)(F)C(F)(F)C(F)(F)C(F)(F)C(F)(F)F Test system: HepaRG Read-out: LDH release cytotoxicity Value: ?
-2.4

I'm curious: which LDH release cytotoxicity was measured for CC(C)(OOC(C)(C)c1ccccc1)c1ccccc1 [Dicumyl peroxide] tested on HepaRG?
-1.54

LDH release cytotoxicity of COc1ccc2c(c1)c(CC(=O)O)c(C)n2C(=O)c1ccc(Cl)cc1 on HepaRG?
0.493

Field: LDH release cytotoxicity (HepaRG). Entry: Cc1cccc([N+](=O)[O-])c1C
0.0899

Request: LDH release cytotoxicity, test system HepaRG, entry CCCCC(CC)COC(=O)CCCCC(=O)OCC(CC)CCCC (configuration not stated) [Bis(2-ethylhexyl)hexanedioate]
-2.88

Hi! What's the reported LDH release cytotoxicity for O=C1C(=O)C(c2ccc(O)c(O)c2)Oc2cc(O)cc(O)c21 (configuration not stated) on HepaRG?
-1.24

Form field - read-out: LDH release cytotoxicity; system: HepaRG; submitted item: CCCCC=O
-1.67

// map Clc1ccccc1C(c1ccccc1)(c1ccccc1)n1ccnc1 to recorded LDH release cytotoxicity (system: HepaRG)
-1.36

Request: LDH release cytotoxicity, test system HepaRG, entry O=C(c1ccc(OCCN2CCCCC2)cc1)c1c(-c2ccc(O)cc2)sc2cc(O)ccc12 [Raloxifene hydrochloride]
-1.8

Request body: readout LDH release cytotoxicity, system HepaRG, query CCNc1nc(Cl)nc(NC(C)(C)C#N)n1 . Return the value.
-1.27

# value lookup — system HepaRG, readout LDH release cytotoxicity, item Cc1ccc(C(C)(C)C)c(O)c1
-3.25

State its LDH release cytotoxicity on HepaRG: c1ccc2c(c1)-c1cccc3c1c-2cc1ccccc13
-2.85

Return LDH release cytotoxicity measured with HepaRG given this compound: CCCOc1ccc(S(=O)(=O)N2CCN(CC)CC2)cc1-c1nc2c(CC)n(Cc3ccccn3)nc2c(=O)[nH]1
-1.82

Kindly state the measured LDH release cytotoxicity obtained for O=C1CCC(N2C(=O)c3ccccc3C2=O)C(=O)N1 (configuration not stated) [Thalidomide] with HepaRG.
-0.415

LDH release cytotoxicity of CN(C)C(=O)Nc1ccc(Cl)cc1 on HepaRG?
-2.41

Hello, I am looking for reported LDH release cytotoxicity with HepaRG for CN1CSC(=S)N(C)C1 . Could you help?
-1.86

What is its LDH release cytotoxicity for HepaRG? Entry: CSC(=O)c1cccc2nnsc12
-0.324

What reported LDH release cytotoxicity corresponds to CCNc1nc(N)nc(Cl)n1 on HepaRG?
-1.46

Please state recorded LDH release cytotoxicity (tested on HepaRG) of CCC[CH2][Sn]([Cl])([CH2]CCC)[CH2]CCC [Tributyltin chloride]
-2.91
